Reference source: patent US9309242B2

- Target Or System: Ba/F3-FGFR4-transfected cells (Homo sapiens, UniProt P22455)
- Sequence (P22455 whole entry, change not shown): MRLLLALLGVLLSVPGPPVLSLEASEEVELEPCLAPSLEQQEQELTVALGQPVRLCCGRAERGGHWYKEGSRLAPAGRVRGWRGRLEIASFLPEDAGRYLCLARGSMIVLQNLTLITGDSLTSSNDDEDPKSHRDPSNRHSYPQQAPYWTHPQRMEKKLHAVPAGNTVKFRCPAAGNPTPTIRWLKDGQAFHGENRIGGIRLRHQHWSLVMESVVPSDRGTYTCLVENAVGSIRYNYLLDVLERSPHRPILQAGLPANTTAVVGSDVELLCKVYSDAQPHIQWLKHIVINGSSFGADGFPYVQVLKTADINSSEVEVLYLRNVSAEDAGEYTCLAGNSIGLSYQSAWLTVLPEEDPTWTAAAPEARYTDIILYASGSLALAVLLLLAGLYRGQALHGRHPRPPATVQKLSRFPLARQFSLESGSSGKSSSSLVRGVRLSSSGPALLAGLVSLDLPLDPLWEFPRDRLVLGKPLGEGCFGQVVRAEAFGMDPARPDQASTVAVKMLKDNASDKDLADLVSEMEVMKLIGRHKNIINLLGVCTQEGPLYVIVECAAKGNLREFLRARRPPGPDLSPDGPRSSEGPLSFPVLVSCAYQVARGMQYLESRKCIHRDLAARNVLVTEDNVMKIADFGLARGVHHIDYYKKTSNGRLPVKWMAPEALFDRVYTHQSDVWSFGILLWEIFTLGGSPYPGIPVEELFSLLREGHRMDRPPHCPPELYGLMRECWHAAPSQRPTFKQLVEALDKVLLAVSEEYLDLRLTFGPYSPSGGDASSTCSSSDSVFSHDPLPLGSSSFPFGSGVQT
- Procedure Text: Ba/F3-FGFR4 cellular proliferation assay, Alamar Blue
- Type: cell-based
Counter-ions that a name gives are not always drawn.
Below: a set of entries, each annotated with reported BAF3-FGFR4 pIC50.
Readout Label: BAF3-FGFR4 pIC50

# Compound, Numeric Readout
records = [
    ("COc1cc(OC)c(F)c(N(Cc2ncc[nH]2)c2ccc3ncc(-c4cnn(C)c4)nc3n2)c1 [23-Sulfate salt]", 7.88),
    ("COc1cc(OC)c(F)c(N(CC(N)=O)c2ccc3ncc(-c4cnn(C)c4)nc3n2)c1", 5.87),
    ("COc1cc(OC)c(F)c(N(CC(O)COC(C)C)c2ccc3ncc(-c4cnn(C)c4)nc3n2)c1 (single isomer, unassigned) [Compound 78]", 7.03),
    ("COc1cc(OC)c(F)c(N(CC2CCCCO2)c2ccc3ncc(-c4cnn(C)c4)nc3n2)c1 (stereo not shown)", 6.61),
]

---

- Target Or System: FGFR3 (h) (Homo sapiens, UniProt P22607)
- Sequence (P22607 23-806): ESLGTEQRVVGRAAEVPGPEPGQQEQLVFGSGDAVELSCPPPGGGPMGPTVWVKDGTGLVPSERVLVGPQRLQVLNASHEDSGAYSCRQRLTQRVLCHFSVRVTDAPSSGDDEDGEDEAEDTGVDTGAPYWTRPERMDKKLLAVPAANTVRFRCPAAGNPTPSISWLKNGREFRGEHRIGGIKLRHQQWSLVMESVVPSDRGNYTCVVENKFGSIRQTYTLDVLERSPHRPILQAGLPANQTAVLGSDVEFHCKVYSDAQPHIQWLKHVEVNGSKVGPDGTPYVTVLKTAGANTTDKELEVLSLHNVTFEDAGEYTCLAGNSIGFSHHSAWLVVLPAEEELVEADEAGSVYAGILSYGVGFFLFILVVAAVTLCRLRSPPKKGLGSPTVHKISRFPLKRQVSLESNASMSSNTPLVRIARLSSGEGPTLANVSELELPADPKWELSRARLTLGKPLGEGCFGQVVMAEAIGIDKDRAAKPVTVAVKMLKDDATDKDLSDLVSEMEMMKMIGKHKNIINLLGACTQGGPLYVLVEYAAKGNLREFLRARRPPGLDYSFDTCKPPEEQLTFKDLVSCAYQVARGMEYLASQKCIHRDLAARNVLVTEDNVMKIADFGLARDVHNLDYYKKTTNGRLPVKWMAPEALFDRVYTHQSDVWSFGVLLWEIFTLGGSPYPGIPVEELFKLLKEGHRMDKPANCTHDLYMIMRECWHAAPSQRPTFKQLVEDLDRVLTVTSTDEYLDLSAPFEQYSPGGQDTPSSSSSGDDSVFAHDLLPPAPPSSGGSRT
- Procedure Text: FGFR3 (enzymatic assay), TR-FRET
- Format: biochemical
- Measurement Setup: average values if tested multiple times, read-out: FGFR 3 pIC50 (converted)

# Compound, Target Or System, IC50 [nM]
data = [
    ("COc1cc(OC)c(F)c(N(CC(O)COC(C)C)c2ccc3ncc(-c4cnn(C)c4)nc3n2)c1F (stereo not shown) [Compound 63]", "FGFR3 (h) (Homo sapiens, UniProt P22607)", 6.31),
    ("COc1cc(OC)c(F)c(N(Cc2nc[nH]c2C)c2ccc3ncc(-c4cnn(C)c4)nc3n2)c1", "FGFR3 (h) (Homo sapiens, UniProt P22607)", 1.45),
    ("CNCCN(c1ccc2ncc(-c3cn[nH]c3)nc2n1)c1c(F)c(OC)cc(OC)c1F", "FGFR3 (h) (Homo sapiens, UniProt P22607)", 1.48),
    ("COc1cc(OC)c(F)c(N(Cc2cn(S(=O)(=O)N(C)C)cn2)c2ccc3ncc(-c4cnn(C)c4)nc3n2)c1", "FGFR3 (h) (Homo sapiens, UniProt P22607)", 1.7),
    ("CNCCN(c1ccc2ncc(-c3cnn(C)c3)nc2n1)c1c(F)c(OC)cc(OC)c1F", "FGFR3 (h) (Homo sapiens, UniProt P22607)", 2.57),
    ("COc1cc(OC)c(F)c(N(Cc2ncc[nH]2)c2ccc3ncc(-c4cnn(C)c4)nc3n2)c1 [Compound 23]", "FGFR3 (h) (Homo sapiens, UniProt P22607)", 1.07),
    ("COc1cc(OC)c(F)c(/N=c2\\ccc3ncc(-c4cnn(C)c4)nc3n2CCNC(C)C)c1F", "FGFR3 (h) (Homo sapiens, UniProt P22607)", 3.16),
    ("COc1cc(OC)c(F)c(N(CC2COC(=O)N2)c2ccc3ncc(-c4cnn(C)c4)nc3n2)c1 (single isomer, unassigned)", "FGFR3 (h) (Homo sapiens, UniProt P22607)", 1),
    ("COc1cc(OC)cc(N(CC#Cc2ncccc2OC)c2ccc3ncc(-c4cnn(C)c4)nc3n2)c1", "FGFR3 (h) (Homo sapiens, UniProt P22607)", 39.8),
    ("COc1cc(OC)c(Cl)c(N(CC2CCC(=O)N2)c2ccc3ncc(-c4cnn(C)c4)nc3n2)c1Cl (single isomer, unassigned)", "FGFR3 (h) (Homo sapiens, UniProt P22607)", 6.76),
    ("COc1cc(OC)c(Cl)c(N(Cc2ncc[nH]2)c2ccc3ncc(-c4cnn(C)c4)nc3n2)c1", "FGFR3 (h) (Homo sapiens, UniProt P22607)", 2.14),
    ("COc1cc(/N=c2\\ccc3ncc(-c4cnn(C)c4)nc3n2CC2CCC(=O)N2)c(F)c(OC)c1 (stereo not shown) [Compound 45]", "FGFR3 (h) (Homo sapiens, UniProt P22607)", 1.35),
    ("COc1cc(OC)c(F)c(N(Cc2cnccn2)c2ccc3ncc(-c4cnn(C)c4)nc3n2)c1F", "FGFR3 (h) (Homo sapiens, UniProt P22607)", 63.1),
    ("CNCCn1/c(=N/c2c(F)c(OC)cc(OC)c2F)ccc2ncc(-c3cnn(C)c3)nc21", "FGFR3 (h) (Homo sapiens, UniProt P22607)", 3.16),
    ("COc1cc(OC)c(F)c(N(Cc2nc[nH]n2)c2ccc3ncc(-c4cnn(C)c4)nc3n2)c1F", "FGFR3 (h) (Homo sapiens, UniProt P22607)", 2.14),
    ("COc1cc(OC)c(F)c(N(Cc2ccnn2C)c2ccc3ncc(-c4cnn(C)c4)nc3n2)c1", "FGFR3 (h) (Homo sapiens, UniProt P22607)", 1.38),
]
